Overview of recorded TP53 KO 5.6 pool (AUC) for various compounds
test system: MCF7 TP53 KO 5.6 pool; assay: Drug screening, resazurin, TP53 KO 5.6 pool; format: cell-based, Human; settings: ten-day drug treatment, 156.25 nM to 10 μM, resazurin fluorescence

[
  {
    "Compound": "CCc1cc2c(cc1N1CCC(N3CCOCC3)CC1)C(C)(C)c1[nH]c3cc(C#N)ccc3c1C2=O",
    "Reading": 2.7
  }
]

// TP53 KO 5.6 pool (AUC) lookup, compound = CO[C@H]1C[C@@H]2CC[C@@H](C)[C@@](O)(O2)C(=O)C(=O)N2CCCC[C@H]2C(=O)O[C@H]([C@H](C)C[C@@H]2CC[C@@H](OCCO)[C@H](OC)C2)CC(=O)[C@H](C)/C=C(\C)[C@@H](O)[C@@H](OC)C(=O)[C@H](C)C[C@H](C)/C=C/C=C/C=C/1C , result: 3.834

// TP53 KO 5.6 pool (AUC) lookup, compound = CCN(CC)CCNC(=O)c1c(C)[nH]c(/C=C2\C(=O)Nc3ccc(F)cc32)c1C , result: 3.758

// TP53 KO 5.6 pool (AUC) lookup, compound = CS(=O)(=O)c1ccc(C(=O)Nc2ccc(Cl)c(-c3ccccn3)c2)c(Cl)c1 , result: 8.363

// TP53 KO 5.6 pool (AUC) lookup, compound = Nc1nc(F)nc2c1ncn2[C@@H]1O[C@H](COP(=O)(O)O)[C@@H](O)[C@@H]1O [FludarabinePhosphate] , result: 7.936

// TP53 KO 5.6 pool (AUC) lookup, compound = Cc1cc(Nc2ncc(Cl)c(Nc3ccccc3S(=O)(=O)C(C)C)n2)c(OC(C)C)cc1C1CCNCC1 , result: 1.421

// TP53 KO 5.6 pool (AUC) lookup, compound = O=C(O)CCCc1ccc(N(CCCl)CCCl)cc1 , result: 17.6

// TP53 KO 5.6 pool (AUC) lookup, compound = CNC(=O)c1ccc(N2C(=S)N(c3ccc(C#N)c(C(F)(F)F)c3)C(=O)C2(C)C)cc1F [Enzalutamide] , result: 8.634

// TP53 KO 5.6 pool (AUC) lookup, compound = C1CN1c1nc(N2CC2)nc(N2CC2)n1 , result: 2.319

// TP53 KO 5.6 pool (AUC) lookup, compound = Nc1cccc2c1CN(C1CCC(=O)NC1=O)C2=O (stereo not shown) [Lenalidomide] , result: 8.801

// TP53 KO 5.6 pool (AUC) lookup, compound = COC(=O)C[C@](O)(CCCC(C)(C)O)C(=O)O[C@@H]1C(OC)=C[C@]23CCCN2CCc2cc4c(cc2[C@H]13)OCO4 [Omacetaxine Mepesuccinate] , result: 0.7717

// TP53 KO 5.6 pool (AUC) lookup, compound = Clc1ccc(C(c2ccccc2Cl)C(Cl)Cl)cc1 (stereo not shown) , result: 10.17

// TP53 KO 5.6 pool (AUC) lookup, compound = CN(C)c1nc(N(C)C)nc(N(C)C)n1 , result: 8.473

----------
tested on: MCF7 TP53 KO 5.6 pool; assay: Drug screening, resazurin, TP53 KO 5.6 pool; type: cell-based, Human; conditions: ten-day drug treatment, 156.25 nM to 10 μM, resazurin fluorescence
Counter-ions that a name gives are not always drawn.
Overview of recorded TP53 KO 5.6 pool (AUC) for various compounds
Enter the number alone.

[
  {
    "Compound": "Cc1ccc(Nc2nccc(N(C)c3ccc4c(C)n(C)nc4c3)n2)cc1S(N)(=O)=O [Pazopanib Hydrochloride]",
    "System under test": "MCF7 TP53 KO 5.6 pool",
    "Reading": 6.349
  }
]

// TP53 KO 5.6 pool (AUC) lookup, compound = O=C1CCC(N2C(=O)c3ccccc3C2=O)C(=O)N1 (stereo not drawn) [Thalidomide] , result: 10.21

// TP53 KO 5.6 pool (AUC) lookup, compound = CC/C(=C(\c1ccccc1)c1ccc(OCCN(C)C)cc1)c1ccccc1 [TamoxifenCitrate] , result: 7.798

// TP53 KO 5.6 pool (AUC) lookup, compound = c1cc(CN2CCCNCCNCCCNCC2)ccc1CN1CCCNCCNCCCNCC1 [Plerixafor] , result: 8.524

// TP53 KO 5.6 pool (AUC) lookup, compound = CO[C@H]1C[C@@H]2CC[C@@H](C)[C@@](O)(O2)C(=O)C(=O)N2CCCC[C@H]2C(=O)O[C@H]([C@H](C)C[C@@H]2CC[C@@H](O)[C@H](OC)C2)CC(=O)[C@H](C)/C=C(\C)[C@@H](O)[C@@H](OC)C(=O)[C@H](C)C[C@H](C)/C=C/C=C/C=C/1C [Sirolimus] , result: 3.106

// TP53 KO 5.6 pool (AUC) lookup, compound = O=C(CCBr)N1CCN(C(=O)CCBr)CC1 [Pipobroman] , result: 7.66

// TP53 KO 5.6 pool (AUC) lookup, compound = O=C(/C=C/c1cccc(S(=O)(=O)Nc2ccccc2)c1)NO [Belinostat] , result: 1.322

// TP53 KO 5.6 pool (AUC) lookup, compound = NCCCNCCSP(=O)(O)O [Amifostine] , result: 9.73

// TP53 KO 5.6 pool (AUC) lookup, compound = COc1nc(N)nc2c1ncn2[C@@H]1O[C@H](CO)[C@@H](O)[C@@H]1O [Nelarabine] , result: 10.08
